Number of deaths Mouse reference
Experiment: Acute toxicity, mouse (Table 4)
Format: in vivo
Settings: deaths/animals, method given for rats only (500 mg/Kg oral, 7 days)

compound	Number of deaths Mouse
Cc1cc2n(c(=O)c1)CCN2C	1/5
O=c1cc(-c2ccccc2)cc2n1CC[S+]2[O-] (stereo not shown)	1/5
O=c1cc(-c2ccccc2)cc2n1CCS2	0/5

Sample `CCN1CCn2c1cc(-c1ccccc1)cc2=O` ; Number of deaths Mouse observed: 0/5
